# Target Of Assay: T1, HLA-A*02:01 (human)
# T1 construct: whole, on cells; Empty class I molecule on TAP-deficient T2-A24 cells; detected with anti-HLA-A02 antibody BB7.2
# Assay Details: T2-A24 MHC class I stabilization, flow cytometry, anti-HLA-A02 BB7.2-FITC, peptide 100 ug/mL
Test Readout: MFI (solvent ratio)

Guide cases for MFI (solvent ratio), answers given:
[[record]]
binder = "IYPPQFHKV (also called ASB4 peptide) [IV9]"
test_readout = "MFI (solvent ratio)"
reading = "0.9 ratio to solvent"

[[record]]
binder = "HVECLLVLL [As87_9]"
test_readout = "MFI (solvent ratio)"
reading = "1.5 ratio to solvent"

[[record]]
binder = "KQLVWRGANV [As157_10]"
test_readout = "MFI (solvent ratio)"
reading = "1.2 ratio to solvent"

[[record]]
binder = "KILCDRGAKL [As124_10]"
test_readout = "MFI (solvent ratio)"
reading = "1.6 ratio to solvent"

[[record]]
binder = "CYSLSGHTAL [As135_10]"
test_readout = "MFI (solvent ratio)"
reading = "1.6 ratio to solvent"

[[record]]
binder = "VVVNAYEHI [As340_9]"
test_readout = "MFI (solvent ratio)"
reading = "0.9 ratio to solvent"


Task: If you can, please state the reported MFI (solvent ratio) value of ILCDRGAKL [As125_9] .
Result: 1.9 ratio to solvent

Task: If you can, please state the reported MFI (solvent ratio) value of HLSVLFGHV [As80_9] .
Result: 1.6 ratio to solvent

Task: If you can, please state the reported MFI (solvent ratio) value of AILIQRQIDV [As35_10] .
Result: 3.4 ratio to solvent

Task: If you can, please state the reported MFI (solvent ratio) value of VLFGHVECLL [As83_10] .
Result: 3.6 ratio to solvent

Task: If you can, please state the reported MFI (solvent ratio) value of KLVKRNFLEAL [As15_11] .
Result: 1 ratio to solvent
